- Tested on: Setaria viridis
- assay protocol: Pre-emergence herbicidal effect
- Format: in vivo
- condition: Dosage 320 g/ha, scored visually after 3 weeks
Listed here: items and their measured SETVI pre-emergence efficacy (herbicidal activity).
metric name: SETVI pre-emergence efficacy (herbicidal activity)

| molecule | meas value |
| --- | --- |
| Cc1cc2c(o1)CCCC2Nc1ncc(S(C)(=O)=O)c(N)n1 (racemic) | 80% |
| CS(=O)(=O)c1cnc(NC2CCCc3cc(Cl)sc32)nc1N (racemic) | 100% |
| Cc1cc2c(s1)CCCC2Nc1nc(N)c(-c2cncc(F)c2)c(C(F)F)n1 (racemic) | 90% |
| Cc1cc2c(s1)CCCC2Nc1ncc(C(F)(F)F)c(N)n1 (racemic) [compound 11] | 100% |
| Cc1cc2c(s1)CC(C)C2Nc1ncc(S(C)(=O)=O)c(N)n1 (racemic) | 100% |
| Cc1cc2c(s1)CCCC2Nc1nc(N)c(-c2cncc(Cl)c2)c(C(F)F)n1 (racemic) | 70% |
| Nc1nc(NC2CCc3ccsc32)ncc1C(F)(F)F (racemic) | 100% |
| CS(=O)(=O)c1cnc(NC2CCCc3ccsc32)nc1N (racemic) | 100% |
| Cc1cc2c(o1)CCCC2Nc1ncc(C(F)(F)F)c(N)n1 (racemic) | 100% |
| Cc1cc2c(s1)CCC2Nc1ncc(S(=O)(=O)C(C)C)c(N)n1 (racemic) | 100% |
| Cc1cc2c(s1)CCC[C@H]2Nc1ncc(I)c(N)n1 | 100% |
| Cc1cc2c(s1)C(Nc1ncc3c(n1)CCCC3=O)CCC2 (racemic) | 100% |
| C/C(=N/O)c1cnc(NC2CCCc3sc(Cl)cc32)nc1C (racemic) | 100% |
| Cc1cc2c(s1)CCCC2Nc1nc(N)c([S+](C)[O-])c(C(C)F)n1 (racemic) | 100% |
| Nc1nc(NC2CCCc3sccc32)ncc1C(F)(F)F (racemic) | 100% |
| Cc1cc2c(s1)CCCC2Nc1ncc(F)c(N)n1 (stereo not shown) | 90% |
| Cc1cc2c(s1)CCCC2Nc1ncc(-c2ccccc2)c(N)n1 (racemic) | 100% |
| Cc1cc2c(s1)CCCC2Nc1nc(N)c(Br)c(C(F)F)n1 (racemic) [compound 314] | 100% |
| Cc1cc2c(s1)CCCC2Nc1ncc(C(F)(F)F)c(N)n1 (racemic) [compound 61] | 100% |

----------
- System: Setaria viridis
- assay protocol: Post-emergence herbicidal effect
- Format: in vivo
- condition: 320 g/ha, assessed visually after about 3 weeks vs untreated controls
post-emergence efficacy SETVI strictly under 80% means yes (1); at 80% or over means no (0).

| compound | label class |
| --- | --- |
| CC(=O)c1cnc(NC2CCCc3sc(C)cc32)nc1N (racemic) [compound 150] | no (0) |
| Cc1cc2c(s1)CCC[C@H]2Nc1ncc(I)c(N)n1 | no (0) |
| CNC(=O)c1cnc(NC2CCCc3sc(C)cc32)nc1N (racemic) | yes (1) |
| Cc1cc2c(s1)C(Nc1ncc(S(C)(=O)=O)c(N)n1)CCC2 (racemic) | no (0) |
| CC(=NO)c1cnc(NC2CCCc3sc(C)cc32)nc1N (racemic) | yes (1) |
| Cc1cc2c(s1)CCCC2Nc1ncc(-c2ccccc2)c(N)n1 (racemic) | yes (1) |
| Cc1cc2c(s1)CCCC2Nc1ncc(C(F)(F)F)c(N)n1 (racemic) [compound 257] | no (0) |
| Cc1cc2c(s1)C(Nc1ncc(C(F)(F)F)c(N)n1)CCC2 (racemic) | no (0) |
| Cc1cc2c(s1)CCCC2Nc1ncc(C#N)c(N)n1 (stereo not drawn) [compound 282] | no (0) |
| Cc1cc2c(s1)CCCC2Nc1nc(N)c(C#N)c(C(C)F)n1 (racemic) | yes (1) |
| Cc1cc2c(s1)CCC[C@H]2Nc1ncc2c(n1)CCCS2(=O)=O | no (0) |
| Nc1nc(NC2CCc3ccsc32)ncc1C(F)(F)F (racemic) | no (0) |
| CC(=O)c1cnc(NC2CCCc3sc(C)cc32)nc1N (stereo not drawn) [compound 283] | no (0) |
| Cc1sc2c(c1C)C(Nc1ncc(C(F)(F)F)c(N)n1)CCC2 (stereo not drawn) | no (0) |
